- Tested on: NIH3T3
- EXPERIMENT DESCRIPTION: Cytotoxic Profiling of Annotated Libraries Using Quantitative High-Throughput Screening (AID 1296008); note: nearly all actives have a fitted effect of over 60% in size
- STATED CONDITIONS: Five cell lines viability, CellTiter-Glo ATP luminescence, 48-72 h
Records with an inconclusive call do not appear. Activity calls are given as the source filed them. Calls come from the whole dose curve; as a rule, active = well fitted inhibition curve with a large enough effect; inconclusive = small, poorly fitted or top-dose-only effect; inactive = flat fitted curve, though single readings scatter. Where a SMILES comes first, the peptide text is derived from it. Bridges are numbered along the chain shown (N, C = ends). [ ]: non-standard residue; d: D form. NMeY = CN[CH](Cc1ccc(O)cc1)C(=O)O
Choose one outcome from this list and give only that: active, inactive

Hi, do you know how `Cc1cc(OCc2nnc(SC3CCCC3)n2-c2cccnc2)ccc1-c1ccc(S(C)(=O)=O)cc1` came out in this test?
active

Hi, do you know how COc1ccc(-c2ccc3c(N4CCOCC4)nc(N4CC(C)OC(C)C4)nc3n2)cc1CO (configuration not stated) came out in this test?
active

Hi, do you know how N=c1nc2n(cc1F)C1OC(CO)C(O)C1O2 (configuration not stated) came out in this test?
active

Hi, do you know how `COc1cc(OC)c(/C=C/S(=O)(=O)Cc2ccc(OC)c(NCC(=O)O)c2)c(OC)c1` came out in this test?
active

Hi, do you know how `CN(C)C1CCN(C(=O)c2ccc(NC(=O)Nc3ccc(-c4nc(N5CCOCC5)nc(N5CCOCC5)n4)cc3)cc2)CC1` came out in this test?
active

Hi, do you know how `CC(C)(C)c1ccc(S(=O)(=O)NCc2ccc(C(=O)Nc3cccnc3)cc2)cc1` came out in this test?
active

Hi, do you know how `Cc1cc(Nc2ncc3cc(-c4c(Cl)cccc4Cl)c(=O)n(C)c3n2)ccc1F` came out in this test?
active

Hi, do you know how `Cc1cc(C)c(Nc2ccnc(Nc3ccc(C#N)cc3)n2)c(C)c1` came out in this test?
active

Hi, do you know how CCC(C)C1NC(=O)C2CCCN2C(=O)C(NC(C)=O)C(C)OC(=O)C(Cc2ccc(OC)cc2)N(C)C(=O)C2CCCN2C(=O)C(C(C)C)NC1=O (configuration not stated) (Ac-TPIVP[NMeY](Me); ester 1-C; configuration not given here) came out in this test?
inactive

Hi, do you know how CCCCNc1ncc2c(-c3ccc(F)cc3)nn(CC3CCC(N)CC3)c2n1 (configuration not stated) came out in this test?
active

Hi, do you know how CCC1C(=O)N(C)c2cnc(Nc3ccc(C(=O)NC4CCC(N5CCN(CC6CC6)CC5)CC4)cc3OC)nc2N1C(C)C (configuration not stated) came out in this test?
active

Hi, do you know how `C=CC(=O)Nc1cc(Nc2nccc(-c3c[nH]c4ccccc34)n2)c(OC)cc1N(C)CCN(C)C` came out in this test?
active

Hi, do you know how `CN1CCN(c2ccc(C(=O)Nc3n[nH]c4ccc(Cc5cc(F)cc(F)c5)cc34)c(NC3CCOCC3)c2)CC1` came out in this test?
active

Hi, do you know how `Cc1cccc(C)c1-n1c(=O)c2cnc(Nc3ccc(N4CCN(C)CC4)cc3)nc2n2c3ccccc3nc12` came out in this test?
active

Hi, do you know how `CC(C)C[C@H](CC(=O)NO)C(=O)N[C@H](C(=O)N[C@@H](C)C(=O)NCCN)C(C)(C)C` came out in this test?
inactive

Hi, do you know how `Cc1ccc([N+](=O)[O-])cc1S(=O)(=O)N(C)/N=C/c1cnc2ccc(Br)cn12` came out in this test?
active

Hi, do you know how `CC(=O)N[C@@H](C(=O)O[C@H]1CCC(C)(C)[C@@H]2CCC3=C(COC3=O)[C@@]12C)C(C)C` came out in this test?
inactive

Origin of measurements: PubChem BioAssay (NCATS)
